Cited source for all entries: patent US20180072804A1

target: T1, human TIM3, full length, on cells (human, UniProt Q8TDQ0 22-301); assay: cell ELISA, CHO-K1 with full-length human Tim3
T1 construct: CHO-K1 cells were transfected with a plasmid for full-length human Tim3; other cells carry endogenous TIM3; also called huTIM-3; CHO-Tim3
recorded.metric: EC50

{"columns": ["binder", "EC50"],
 "data": [
  ["anti-TIM3 antibody Tim3_0021 (antibody, V domains shown, Mouse monoclonal from hybridoma) VH: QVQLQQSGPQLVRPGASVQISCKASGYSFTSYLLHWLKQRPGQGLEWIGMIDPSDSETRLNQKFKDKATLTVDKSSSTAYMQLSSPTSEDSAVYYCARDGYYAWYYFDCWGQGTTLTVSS VL: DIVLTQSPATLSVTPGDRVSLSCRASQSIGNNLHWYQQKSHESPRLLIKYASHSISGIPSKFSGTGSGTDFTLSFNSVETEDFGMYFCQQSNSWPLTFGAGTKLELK", "0.073 µg/mL"],
  ["anti-TIM3 antibody Tim3_0038 (antibody, V domains shown, Mouse monoclonal from hybridoma) VH: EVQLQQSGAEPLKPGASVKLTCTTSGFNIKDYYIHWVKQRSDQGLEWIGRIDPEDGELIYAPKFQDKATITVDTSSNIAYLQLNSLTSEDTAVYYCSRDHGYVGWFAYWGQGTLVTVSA VL: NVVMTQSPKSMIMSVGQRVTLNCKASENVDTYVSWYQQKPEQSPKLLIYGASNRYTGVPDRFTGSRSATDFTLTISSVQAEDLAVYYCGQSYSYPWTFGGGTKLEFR", "0.029 µg/mL"]
]}

# context switch: different binder, same EC50
Which EC50 is listed for anti-TIM3 antibody Tim3_0026 (antibody, V domains shown, Mouse monoclonal from hybridoma) VH: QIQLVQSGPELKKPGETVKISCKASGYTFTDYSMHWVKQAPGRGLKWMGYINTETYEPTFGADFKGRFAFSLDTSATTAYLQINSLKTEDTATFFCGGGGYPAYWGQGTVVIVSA VL: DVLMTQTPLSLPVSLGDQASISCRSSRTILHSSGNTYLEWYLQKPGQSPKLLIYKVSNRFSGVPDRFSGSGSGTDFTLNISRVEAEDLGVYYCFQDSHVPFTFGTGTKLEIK ? 0.069 µg/mL
